# credit: paper PMC5979531

Tested on: tyrosinase from mushroom
Test: Mushroom tyrosinase activity
Type: biochemical
Conditions: Substrate: L-DOPA, 10 µM
quantity_measured: Inhibition (%) of mushroom tyrosinase

# molecule, quantity_measured, units_of_measure, value
measured = [
    ("CCCCCCCCCCCCOC1=C(OCC(O)CO)C(=O)O[C@@H]1[C@@H](O)CO (stereo partly shown)", "Inhibition (%) of mushroom tyrosinase", "%", "−6.4"),
    ("CCCCCCCCCCOC1=C(OCC(O)CO)[C@@H]([C@@H](O)CO)OC1=O (stereo partly shown) [compound 10, 2-O-decyl-3-O-(2,3-dihydroxypropyl)-AsA]", "Inhibition (%) of mushroom tyrosinase", "%", 0.4),
    ("CCCCCCCCCCOC1=C(OCC(O)CO)C(=O)O[C@@H]1[C@@H](O)CO (stereo partly shown) [compound 24, 3-O-decyl-2-O-(2,3-dihydroxypropyl)-AsA]", "Inhibition (%) of mushroom tyrosinase", "%", 0.7),
    ("CCCCCCCCCCCOC1=C(OCC(O)CO)[C@@H]([C@@H](O)CO)OC1=O (stereo partly shown)", "Inhibition (%) of mushroom tyrosinase", "%", "−4.6"),
    ("CCCCCCCCCCCCCOC1=C(OCC(O)CO)[C@@H]([C@@H](O)CO)OC1=O (stereo partly shown)", "Inhibition (%) of mushroom tyrosinase", "%", "−4.7"),
    ("CCCCCCCCCCCCCOC1=C(OCC(O)CO)C(=O)O[C@@H]1[C@@H](O)CO (stereo partly shown)", "Inhibition (%) of mushroom tyrosinase", "%", "−2.0"),
    ("CCCCCCCCCCCCOC1=C(OCC(O)CO)[C@@H]([C@@H](O)CO)OC1=O (stereo partly shown)", "Inhibition (%) of mushroom tyrosinase", "%", "−3.1"),
    ("CCCCCCCCCCCOC1=C(OCC(O)CO)C(=O)O[C@@H]1[C@@H](O)CO (stereo partly shown)", "Inhibition (%) of mushroom tyrosinase", "%", "−10.2"),
]

1: CCCCCCCCCCCCCCOC1=C(OCC(O)CO)[C@@H]([C@@H](O)CO)OC1=O (stereo partly shown)
2: CCCCCCCCCCCCCCOC1=C(OCC(O)CO)C(=O)O[C@@H]1[C@@H](O)CO (stereo partly shown)
Please let me know which one, 1 or 2 , has a lower measured Inhibition (%) of mushroom tyrosinase value. Refer to your chosen entry by its label in the reply.
1
(1: −8.9%, 2: −5.7%)
